Test system: Streptococcus 82
Test: In vitro MIC, Agar Well Diffusion Method
Format: cell-based, Streptococcus aureus
Conditions: Agar Well Diffusion Method; Streptococcus aureus 82; read-out: In Vitro MIC
Structures can show the parent of a compound that is named as a salt.
READOUT_NAME: MIC

                                   compound  readout_name      result
0  CCn1cc(C(=O)O)c(=O)c2cc(F)c(N3CCN(C=N[C@@H]4C(=O)N5[C@@H]4SC(C)(C)[C@@H]5C(=O)O)CC3)cc21 [Compound B, monosodium salt]           MIC   7.8 µg/mL
1  CCn1cc(C(=O)O)c(=O)c2cc(F)c(N3CCCN(C=N[C@@H]4C(=O)N5[C@@H]4SC(C)(C)[C@@H]5C(=O)O)CC3)cc21 [Compound G, disodium salt]           MIC    50 µg/mL
2  CC1(C)S[C@@H]2[C@H](N=CN3CCN(c4c(F)cc5c(=O)c(C(=O)O)cn(CCF)c5c4F)CC3)C(=O)N2[C@H]1C(=O)O [Compound D, monosodium salt]           MIC   3.9 µg/mL
3  CCn1cc(C(=O)O)c(=O)c2cc(F)c(N3CCN(C=N[C@@H]4C(=O)N5C(C(=O)O)=C(C)CS[C@H]45)CC3)cc21 [Compound C, disodium salt]           MIC  15.6 µg/mL
4  CCn1cc(C(=O)OC)c(=O)c2cc(F)c(N3CCN(C=N[C@@H]4C(=O)N5[C@@H]4SC(C)(C)[C@@H]5C(=O)O)CC3)cc21           MIC   7.8 µg/mL
5  CCn1cc(C(=O)O)c(=O)c2cc(F)c(N3CCN(C=N[C@@H]4C(=O)N5[C@@H]4SC(C)(C)[C@@H]5C(=O)O)CC3)nc21 [Compound H, disodium salt]           MIC   7.8 µg/mL
